target: Fibroblast growth factor receptor 1 (Homo sapiens, UniProt P11362); assay: Inhibition of FGFR1
Sequence (P11362 whole entry): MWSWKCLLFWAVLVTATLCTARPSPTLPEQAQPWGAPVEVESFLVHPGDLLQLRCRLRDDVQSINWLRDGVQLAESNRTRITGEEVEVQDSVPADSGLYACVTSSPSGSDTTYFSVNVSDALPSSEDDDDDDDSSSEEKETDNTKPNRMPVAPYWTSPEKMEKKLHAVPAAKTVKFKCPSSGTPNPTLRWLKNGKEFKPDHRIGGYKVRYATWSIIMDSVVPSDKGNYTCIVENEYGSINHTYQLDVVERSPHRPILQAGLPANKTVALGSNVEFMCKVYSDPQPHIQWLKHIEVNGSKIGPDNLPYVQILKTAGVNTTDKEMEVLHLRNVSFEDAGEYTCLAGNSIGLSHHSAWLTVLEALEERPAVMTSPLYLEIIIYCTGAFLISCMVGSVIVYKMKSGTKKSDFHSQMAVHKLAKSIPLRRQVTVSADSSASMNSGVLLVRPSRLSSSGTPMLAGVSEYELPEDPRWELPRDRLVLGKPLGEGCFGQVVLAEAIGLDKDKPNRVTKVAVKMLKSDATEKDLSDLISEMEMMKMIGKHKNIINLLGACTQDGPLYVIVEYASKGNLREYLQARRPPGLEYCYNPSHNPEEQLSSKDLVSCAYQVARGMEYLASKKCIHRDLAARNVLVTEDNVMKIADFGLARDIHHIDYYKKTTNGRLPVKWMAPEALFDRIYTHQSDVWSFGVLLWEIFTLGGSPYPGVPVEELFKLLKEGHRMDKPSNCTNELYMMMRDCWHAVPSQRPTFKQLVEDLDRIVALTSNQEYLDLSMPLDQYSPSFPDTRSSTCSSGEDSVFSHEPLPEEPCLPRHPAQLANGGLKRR
pIC50: −log10 of the molar value.
Measured endpoint: pIC50

The reported value for Cn1ccc2ncnc(Oc3ccc(NC(=O)Nc4cccc(C(F)(F)F)c4)c(F)c3)c21 in terms of pIC50 is < 5.00

###

assay: Solubility of the compound at pH 6.8; format: physicochemical; settings: buffer
Measured endpoint: solubility (µg/mL)
Answer in µg/mL, number only, no unit symbol.

The reported value for CN1CCN(Cc2ccc(NC(=O)Nc3ccc(Oc4ncnc5ccn(C)c45)cc3Cl)cc2C(F)(F)F)CC1 in terms of solubility is 19

The reported value for Cn1ccc2ncnc(Oc3ccc(NC(=O)Nc4cccc(C(F)(F)F)c4)c(Cl)c3)c21 in terms of solubility is 0.09
